Biological target: M. globosa CYP5218 (Malassezia globosa, UniProt A8QCD3, A3L/A5L/F6A/I7V/S4L/S8F)
Assay: biochemical
Assay type: binding
Conditions: CYP5218 Kd (μM) Eadie-Hofstee, 4 μM CYP5218, type I spectra, mean of three replicates with SD
// boundary case: Kd equal to 200 µM maps to NO; strictly smaller maps to YES

Reference set, count: 4
chemical string | target under test | class
CCCCC/C=C\C/C=C\CCCCCCCC(=O)O | M. globosa CYP5218 (Malassezia globosa, UniProt A8QCD3, A3L/A5L/F6A/I7V/S4L/S8F) | YES
CCCCCCCCCCCCCC(=O)O | M. globosa CYP5218 (Malassezia globosa, UniProt A8QCD3, A3L/A5L/F6A/I7V/S4L/S8F) | NO
CCCCCC/C=C\CCCCCCCC(=O)O | M. globosa CYP5218 (Malassezia globosa, UniProt A8QCD3, A3L/A5L/F6A/I7V/S4L/S8F) | YES
CCCCC/C=C\C/C=C\C/C=C\C/C=C\CCCC(=O)O | M. globosa CYP5218 (Malassezia globosa, UniProt A8QCD3, A3L/A5L/F6A/I7V/S4L/S8F) | NO

Q. Just wondering, is Kd of CCCC/C=C\CCCCCCCC(=O)O below 200 µM?
A. YES

---

Biological target: M. globosa CYP5218 (Malassezia globosa, UniProt A8QCD3, A3L/A5L/F6A/I7V/S4L/S8F)
Test: biochemical
Format: binding
Conditions: CYP5218 Kd (μM) Michaelis-Menten, 4 μM CYP5218, type I spectra, mean of three replicates with SD
attribute measured: log10(Kd) (log10 of the value in µM)
Values are log10 of Kd in µM.

Working through the 5 molecules below one at a time, give log10(Kd) for each.
1. CCCCC/C=C\C/C=C\CCCCCCCC(=O)O
2. CCCCCCCC/C=C\CCCCCCCC(=O)O
3. CCCCCCCCCCCC(=O)O
4. CCCC/C=C\CCCCCCCC(=O)O
5. CCCCC/C=C\C/C=C\C/C=C\C/C=C\CCCC(=O)O

A.
1. 1.56
2. 1.97
3. 2.13
4. 2.20
5. 2.42

Working through the 3 molecules below one at a time, give log10(Kd) for each.
1. CCCCCCCCCCCCCCCC(=O)O
2. CCCCCC/C=C\CCCCCCCC(=O)O
3. CCCCCCCCCCCCCC(=O)O

A.
1: 3.01; 2: 2.05; 3: 2.29

---

Biological target: M. globosa CYP51 (Malassezia globosa, UniProt A8Q3I7, A7V/E4L/G6A/I5L/L2A/Q3L/W8F)
Sequence (A8Q3I7 whole entry L2A/Q3L/E4L/I5L/G6A/A7V/W8F): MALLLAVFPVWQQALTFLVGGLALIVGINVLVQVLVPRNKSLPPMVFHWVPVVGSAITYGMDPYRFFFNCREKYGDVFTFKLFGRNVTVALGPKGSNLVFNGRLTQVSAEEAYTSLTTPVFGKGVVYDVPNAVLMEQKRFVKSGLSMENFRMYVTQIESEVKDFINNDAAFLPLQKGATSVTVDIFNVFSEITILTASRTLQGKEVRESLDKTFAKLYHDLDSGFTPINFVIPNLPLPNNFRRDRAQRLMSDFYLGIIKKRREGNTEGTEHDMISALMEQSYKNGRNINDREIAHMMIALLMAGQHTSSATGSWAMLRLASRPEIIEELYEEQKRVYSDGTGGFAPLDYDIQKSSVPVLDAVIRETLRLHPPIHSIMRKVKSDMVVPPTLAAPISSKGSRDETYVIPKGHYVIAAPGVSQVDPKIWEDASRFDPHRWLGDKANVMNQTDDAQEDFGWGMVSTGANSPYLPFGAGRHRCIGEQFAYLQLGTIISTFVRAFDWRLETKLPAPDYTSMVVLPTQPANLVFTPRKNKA
Assay: biochemical
Settings: IC50, 0.5 μM CYP51, CYP51:AfCPR1 1:2, 50 μM lanosterol as substrate
Kindly supply the reported pIC50 values for the records listed here.
One number for each entry, as −log10 of the molar value.

compound | target under test | attribute measured | data value
CC(=O)N1CCN(c2ccc(OCC3COC(Cn4ccnc4)(c4ccc(Cl)cc4Cl)O3)cc2)CC1 (centres unmarked) | M. globosa CYP51 (Malassezia globosa, UniProt A8Q3I7, A7V/E4L/G6A/I5L/L2A/Q3L/W8F) | pIC50 | 6.75

Let's switch to this compound now.
# pIC50 measured on M. globosa CYP51 (Malassezia globosa, UniProt A8Q3I7, A7V/E4L/G6A/I5L/L2A/Q3L/W8F) for item CCC(C)n1ncn(-c2ccc(N3CCN(c4ccc(OCC5COC(Cn6cncn6)(c6ccc(Cl)cc6Cl)O5)cc4)CC3)cc2)c1=O (centres unmarked) = 6.73

---

Molecular target: M. globosa CYP5218 (Malassezia globosa, UniProt A8QCD3, A3L/A5L/F6A/I7V/S4L/S8F)
Assay: biochemical
Format: binding
Settings: result in words
Experimental: Reduced carbon monoxide difference spectroscopy[46][47] and absolute spectra between 700 and 300 nm were used to determine cytochrome P450 concentrations. […] The absorbance difference spectrum between 500 and 350 nm was determined after each incremental addition of ligand with saturation curves constructed from ΔApeak-trough against ligand concentration. […]

compound | binding spectra with CYP5218
CCCCCCCCCCCCCCCC [n-hexadecane] | No binding spectra
CCCCCCCCCC(=O)O [Capric acid, capric acid] | No binding spectra
CCCCCCCCCCCCCCCCCCCC(=O)O [Arachidic acid, arachidic acid] | No binding spectra
C=CCCCCCCCCCCCCCC [1-hexadecene] | No binding spectra

---

Target: M. globosa CYP5218 (Malassezia globosa, UniProt A8QCD3, A3L/A5L/F6A/I7V/S4L/S8F)
Experiment: biochemical
Assay type: binding
Details: 4 μM CYP5218, type I spectra, mean of three replicates with SD
attribute measured: CYP5218 Kd (μM) Michaelis-Menten

molecule | target under test | attribute measured | data value
CCCCCCCCCCCCCCCCCCCC(=O)O [Arachidic acid, arachidic acid] | M. globosa CYP5218 (Malassezia globosa, UniProt A8QCD3, A3L/A5L/F6A/I7V/S4L/S8F) | CYP5218 Kd (μM) Michaelis-Menten | no binding
CCCCCCCCCC(=O)O [Capric acid, capric acid] | M. globosa CYP5218 (Malassezia globosa, UniProt A8QCD3, A3L/A5L/F6A/I7V/S4L/S8F) | CYP5218 Kd (μM) Michaelis-Menten | no binding

---

Target: M. globosa CYP5218 (Malassezia globosa, UniProt A8QCD3, A3L/A5L/F6A/I7V/S4L/S8F)
Assay: biochemical
Assay type: binding
Details: CYP5218 Kd (μM) Eadie-Hofstee, 4 μM CYP5218, type I spectra, mean of three replicates with SD
attribute measured: Kd (µM)
Numbers only, in µM.

Consider the reported Kd for these compounds:
chemical string | target under test | Kd, µM
CCCCCCCCCCCCCCCC(=O)O | M. globosa CYP5218 (Malassezia globosa, UniProt A8QCD3, A3L/A5L/F6A/I7V/S4L/S8F) | 253
CCCCCCCC/C=C\CCCCCCCC(=O)O | M. globosa CYP5218 (Malassezia globosa, UniProt A8QCD3, A3L/A5L/F6A/I7V/S4L/S8F) | 90

GET /value?item= CCCCCCCCCCCC(=O)O &field=Kd returns 136

---

Target: M. globosa CYP51 (Malassezia globosa, UniProt A8Q3I7, A7V/E4L/G6A/I5L/L2A/Q3L/W8F)
Assay: biochemical
Assay type: binding
// boundary case: Kd equal to 10 nM maps to criterion not met; strictly smaller maps to criterion met

compound | target under test | class
Clc1ccccc1C(c1ccccc1)(c1ccccc1)n1ccnc1 | M. globosa CYP51 (Malassezia globosa, UniProt A8Q3I7, A7V/E4L/G6A/I5L/L2A/Q3L/W8F) | criterion met
C=C(CC[C@@H](C)[C@H]1CC[C@@]2(C)C3=C(CC[C@]12C)[C@@]1(C)CC[C@H](O)[C@@H](C)[C@@H]1CC3)C(C)C | M. globosa CYP51 (Malassezia globosa, UniProt A8Q3I7, A7V/E4L/G6A/I5L/L2A/Q3L/W8F) | criterion not met

Q. Just wondering, is Kd of C[C@@H](c1ncncc1F)[C@](O)(Cn1cncn1)c1ccc(F)cc1F below 10 nM?
A. criterion met

Q. Just wondering, is Kd of C=C(CC[C@@H](C)[C@H]1CC[C@@]2(C)C3=C(CC[C@]12C)[C@@]1(C)CC[C@H](O)C(C)(C)[C@@H]1CC3)C(C)C below 10 nM?
A. criterion not met

Q. Just wondering, is Kd of CCC(C)n1ncn(-c2ccc(N3CCN(c4ccc(OCC5COC(Cn6cncn6)(c6ccc(Cl)cc6Cl)O5)cc4)CC3)cc2)c1=O (centres unmarked) below 10 nM?
A. criterion met

Q. Just wondering, is Kd of CC(=O)N1CCN(c2ccc(OCC3COC(Cn4ccnc4)(c4ccc(Cl)cc4Cl)O3)cc2)CC1 (centres unmarked) below 10 nM?
A. criterion met

Q. Just wondering, is Kd of CC(C)=CCC[C@@H](C)[C@H]1CC[C@@]2(C)C3=C(CC[C@]12C)[C@@]1(C)CC[C@H](O)C(C)(C)[C@@H]1CC3 below 10 nM?
A. criterion not met

Q. Just wondering, is Kd of OC(Cn1cncn1)(Cn1cncn1)c1ccc(F)cc1F below 10 nM?
A. criterion not met

---

Target: M. globosa CYP51 (Malassezia globosa, UniProt A8Q3I7, A7V/E4L/G6A/I5L/L2A/Q3L/W8F)
Assay: biochemical
Settings: 0.5 μM CYP51, CYP51:AfCPR1 1:2, 50 μM lanosterol as substrate
attribute measured: pIC50
One number for each entry, as −log10 of the molar value.

GET /value?item= CC(=O)N1CCN(c2ccc(NCC3COC(Cn4ccnc4)(c4ccc(Cl)cc4Cl)O3)cc2)CC1 (stereo not shown) &field=pIC50 returns 6.49

---

Molecular target: M. globosa CYP5218 (Malassezia globosa, UniProt A8QCD3, A3L/A5L/F6A/I7V/S4L/S8F)
Test: biochemical
Format: binding
Details: read-out: CYP5218 Kd (μM) Eadie-Hofstee; 4 μM CYP5218, type I spectra, mean of three replicates with SD
attribute measured: Kd (µM)
Give bare numbers, in µM.

GET /value?item= CC/C=C\CCCCCCCC(=O)O &field=Kd returns 148
